- experimental.system: ERR1 (also known as ERR-α or ERR-1) (Homo sapiens)
- Sequence (P11474 193-421 limits assumed, species assumed): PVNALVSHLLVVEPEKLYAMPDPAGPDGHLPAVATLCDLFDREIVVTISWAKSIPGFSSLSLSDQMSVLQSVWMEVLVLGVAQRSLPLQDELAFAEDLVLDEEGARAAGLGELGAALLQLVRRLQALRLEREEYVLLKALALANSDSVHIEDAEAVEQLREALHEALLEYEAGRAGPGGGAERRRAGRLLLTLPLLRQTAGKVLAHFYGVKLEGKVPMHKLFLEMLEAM
- assay.name: TR-FRET assay (disruption of co-activator peptide binding to ERR1 LBD)
- cond: 6 nM 6His-ERR1LBD, 6 nM GST-SRC-2 peptide; average of 3 independent experiments
quantity.kind: EC50 (nM)

// solved cases for EC50 follow
compound: O=C1S/C(=C\c2ccc3c(cnn3Cc3ccc(Cl)cc3C(F)(F)F)c2)C(=O)N1CCNS(=O)(=O)N1CCCC1
EC50 / nM: 79

compound: O=C(O)COCCN1C(=O)S/C(=C\c2ccc3c(cnn3Cc3ccc(Cl)cc3C(F)(F)F)c2)C1=O
EC50 / nM: 98

compound: O=C1S/C(=C\c2ccc3c(c2)nnn3Cc2ccc(Cl)cc2C(F)(F)F)C(=O)N1CCN1CCCC1
EC50 / nM: 24

P: CN1CCC(N2C(=O)S/C(=C\c3ccc4c(cnn4Cc4ccc(Cl)cc4C(F)(F)F)c3)C2=O)CC1
Q: O=C1S/C(=C\c2ccc3c(cnn3Cc3ccc(Cl)cc3C(F)(F)F)c2)C(=O)N1C[C@H](O)CN1CC[C@@H](F)C1
R: O=C1S/C(=C\c2ccc3c(cnn3Cc3ccc(Cl)cc3C(F)(F)F)c2)C(=O)N1[C@@H]1CCNC[C@H]1F [Compound 381]
S: O=C1S/C(=C\c2ccc3c(cnn3Cc3ccc(Cl)cc3C(F)(F)F)c2)C(=O)N1CC(=O)N1CCNS1(=O)=O
[in] Kindly order the items shown according to EC50, from the highest value down. Return the labels ranked in the requested order, please.
[out] Q, R, P, S
(Q: 63 nM, R: 28 nM, P: 19 nM, S: 12 nM)

Measured values drawn from patent US8796256B2 for this set.
